Data origin: the supplement of paper PMC11061612

Catalogue of Bliss excess values
test system: MDA-MB-157 (Breast Carcinoma); test: Bliss excess, mean over the matrix (fraction); higher = more synergy;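 note: after 72 h of two-drug dosing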

compound: COc1nnc2ccc(N3CCC(c4ccc(OCCN5CCN(C)C(=O)[C@H]5C)cc4)CC3)nn12 [AZD5153] + Cc1c2c(nn1C)CSCc1cc(n(C)n1)CSc1cc(c3ccccc3c1)OCCCc1c(C(=O)O)n(C)c3c-2c(Cl)ccc13 [AZD5991] (first compound max 1 µM, 7x7, partner max 1 µM)
Bliss excess: 0.0297

compound: C[C@@H]1COCCN1c1cc(C2([S@](C)(=N)=O)CC2)nc(-c2ccnc3[nH]ccc23)n1 [AZD6738] + O=C(c1cc(Cc2n[nH]c(=O)c3ccccc23)ccc1F)N1CCN(C(=O)C2CC2)CC1 [Olaparib] (first compound max 10 µM, 7x7, partner max 10 µM)
Bliss excess: -0.0453

compound: NC1(C(=O)N[C@@H](CCO)c2ccc(Cl)cc2)CCN(c2ncnc3[nH]ccc23)CC1 [Capivasertib] + CC(=O)c1c(C)c2cnc(Nc3ccc(N4CCNCC4)cn3)nc2n(C2CCCC2)c1=O [Palbociclib] (first compound max 10 µM, 7x7, partner max 10 µM)
Bliss excess: 0.0439

compound: COc1nnc2ccc(N3CCC(c4ccc(OCCN5CCN(C)C(=O)[C@H]5C)cc4)CC3)nn12 [AZD5153] + C[C@@H]1COCCN1C2=NC(=NC(=C2)C3(CC3)[S@](=N)(=O)C)C4=C5C=CNC5=NC=C4 [AZD6738] (first compound max 1 µM, 7x7, partner max 10 µM)
Bliss excess: -0.0138

compound: O=C(c1cc(Cc2n[nH]c(=O)c3ccccc23)ccc1F)N1CCN(C(=O)C2CC2)CC1 [Olaparib] + Cc1c2c(nn1C)CSCc1cc(n(C)n1)CSc1cc(c3ccccc3c1)OCCCc1c(C(=O)O)n(C)c3c-2c(Cl)ccc13 [AZD5991] (first compound max 10 µM, 7x7, partner max 1 µM)
Bliss excess: -0.0291

compound: CC1(C)CCC(CN2CCN(c3ccc(C(=O)NS(=O)(=O)c4ccc(NCC5CCOCC5)c([N+](=O)[O-])c4)c(Oc4cnc5[nH]ccc5c4)c3)CC2)=C(c2ccc(Cl)cc2)C1 [Venetoclax] + COc1cc(Nc2ncc3c(n2)-c2ccc(Cl)cc2C(c2c(F)cccc2OC)=NC3)ccc1C(=O)O [Alisertib] (first compound max 1 µM, 7x7, partner max 10 µM)
Bliss excess: 0.014

compound: Cn1cnc2c(F)c(Nc3ccc(Br)cc3Cl)c(C(=O)NOCCO)cc21 [Selumetinib] + C=CCn1c(=O)c2cnc(Nc3ccc(N4CCN(C)CC4)cc3)nc2n1-c1cccc(C(C)(C)O)n1 [AZD1775] (first compound max 10 µM, partner max 1 µM)
Bliss excess: 0.0096

compound: CCN(CCO)CCCOc1ccc2c(Nc3cc(CC(=O)Nc4cccc(F)c4)[nH]n3)ncnc2c1 [AZD2811] + O=C(c1cc(Cc2n[nH]c(=O)c3ccccc23)ccc1F)N1CCN(C(=O)C2CC2)CC1 [Olaparib] (first compound max 1 µM, 7x7, partner max 10 µM)
Bliss excess: 0.032

compound: COc1cccc(OCCCN)c1-c1cc(Nc2cnc(C#N)cn2)n[nH]1 [Prexasertib] + C=CCn1c(=O)c2cnc(Nc3ccc(N4CCN(C)CC4)cc3)nc2n1-c1cccc(C(C)(C)O)n1 [AZD1775] (first compound max 1 µM, partner max 1 µM)
Bliss excess: 0.0628

compound: Cc1c2c(nn1C)CSCc1cc(n(C)n1)CSc1cc(c3ccccc3c1)OCCCc1c(C(=O)O)n(C)c3c-2c(Cl)ccc13 [AZD5991] + CS(=O)(=O)CCNCc1ccc(-c2ccc3ncnc(Nc4ccc(OCc5cccc(F)c5)c(Cl)c4)c3c2)o1 [Lapatinib] (first compound max 1 µM, 7x7, partner max 10 µM)
Bliss excess: 0.0108

compound: C[C@@H](Nc1cc(F)cc(F)c1)c1cc(C(=O)N(C)C)cc2c(=O)cc(N3CCOCC3)oc12 [AZD8186] + C1CN(CCC1(C(=O)N[C@@H](CCO)C2=CC=C(C=C2)Cl)N)C3=NC=NC4=C3C=CN4 [AZD5363] (first compound max 10 µM, 7x7, partner max 10 µM)
Bliss excess: 0.0227

compound: CN(CCO)CC[C@H](CSc1ccccc1)Nc1ccc(S(=O)(=O)NC(=O)c2ccc(N3CCC([C@@H](O)c4ccccc4-c4ccc(Cl)cc4)CC3)cc2)cc1S(=O)(=O)C(F)(F)F [AZD4320] + C[C@@H]1COCCN1C2=NC(=NC(=C2)C3(CC3)[S@](=N)(=O)C)C4=C5C=CNC5=NC=C4 [AZD6738] (first compound max 1 µM, 7x7, partner max 10 µM)
Bliss excess: -0.0254

compound: CCN(CCO)CCCOc1ccc2c(Nc3cc(CC(=O)Nc4cccc(F)c4)[nH]n3)ncnc2c1 [AZD2811] + C[C@@H]1COCCN1C2=NC(=NC(=C2)C3(CC3)[S@](=N)(=O)C)C4=C5C=CNC5=NC=C4 [AZD6738] (first compound max 1 µM, 7x7, partner max 10 µM)
Bliss excess: 0.0031
